# maps each entry to its koff
Biological target: T1, hPD-L1-His (human, UniProt Q9NZQ7 19-238)
T1 construct: Bought protein; also called hPD-L1-His (manufactured by Edison); not shown: His tag
T1 sequence (Q9NZQ7 19-238 limits assumed): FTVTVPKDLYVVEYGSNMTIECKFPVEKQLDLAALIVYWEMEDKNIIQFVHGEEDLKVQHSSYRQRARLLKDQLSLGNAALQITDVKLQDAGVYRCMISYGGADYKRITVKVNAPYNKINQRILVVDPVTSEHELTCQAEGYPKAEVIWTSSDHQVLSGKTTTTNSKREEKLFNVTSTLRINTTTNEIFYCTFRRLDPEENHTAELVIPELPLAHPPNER
Assay: SPR (Biacore T200), antibody on Protein A chip, hPD-L1-His injected, 1:1 fit
Method: Subsequently, the binding affinity of the anti-PD-L1 chimeric antibody, humanized antibody, and marketed control antibody to hPD-L1-His (manufactured by Edison) were determined by surface plasmon resonance (Biacore T200 biosensor, Biacore, INC, Piscataway N.J.) equipped with pre-immobilized Protein A sensor chips. The detection results were read after the chip was regenerated with pH 2.0 glycine (30 μl/min, 10-20 s). […]
Please give a number only; it is taken to be in s⁻¹.

Record excerpt, results attached:
Binder | Units text | Val
3F2-H4K2-IgG1 (antibody, V domains shown) VH: DVQLQESGPGLVKPSETLSLTCTVSGYSITSGYNWHWIRQFPGNKLEWMGYIHHSSITNYNPSLKSRITISRDTSKNQFFLQLSSVTAEDTATFYCAREGYDYDWFAYWGQGTLVTVSS VL: DIVLTQSPDFQSVTPKEKVTLSCRASQSISNNLHWYQQKPDESPKLLIKYASQSISGIPSRFSGSGSGTDFTLTINSVEAEDFAMYFCQQSKSWPFTFGQGTRLEIK | s⁻¹ | 0.000617
3F2-H3K1-IgG1 (antibody, V domains shown) VH: DVQLQESGPGLVKPSETLSLTCTVSGYSITSGYNWHWIRQFPGNGLEWMGYIHHSSITNYNPSLKSRITISRDTSKNQFSLKLSSVTAEDTATFYCAREGYDYDWFAYWGQGTLVTVSS VL: DIVLTQSPDFQSVTPKEKVTITCRASQSISNNLHWYQQKPDESPKLLIKYASQSISGIPSRFSGSGSGTDFTLTINSVEAEDFAMYFCQQSKSWPFTFGQGTRLEIK | s⁻¹ | 0.000793

Now look at this one.
# get_value(readout='koff', item= 3F2-H1K3-IgG1 (antibody, V domains shown) VH: QVQLQESGPGLVKPSETLSLTCTVSGYSITSGYNWHWIRQFPGNGLEWMGYIHHSSITNYNPSLKSRITISRDTSKNQFSLKLSSVTAADTATYYCAREGYDYDWFAYWGQGTLVTVSS VL: DIVLTQSPDTQSVTPKESVTLSCRASQSISNNLHWYQQKSHESPKLLIKYASQSISGIPSRFSGSGSGTDFTLTINSVEAEDFAMYFCQQSKSWPFTFGQGTRLEIK )
0.000874
